Form field: AC50 (one value per entry).
System: BJeH fibroblasts viability, Alamar Blue fluorescence, 48 h
Experiment: viability loss in BJeH fibroblasts, dose response, counter-screen for Ras selective lethality project, cell-based, plate reader, dry powder, set 4 (AID 540316)
Results filed as inconclusive are left out.
Reported property: AC50

[
  {
    "Compound": "O=C(c1ccc([N+](=O)[O-])o1)N1CCN(C(c2ccc(F)cc2)c2ccc(F)cc2)CC1",
    "Study system": "BJeH fibroblasts viability, Alamar Blue fluorescence, 48 h",
    "Recorded value": "14.2 µM"
  },
  {
    "Compound": "CCOc1ccccc1-n1c(C(C)N2CCN(C(=O)COc3ccc(Cl)cc3)CC2)nc2ccccc2c1=O (stereo not given)",
    "Study system": "BJeH fibroblasts viability, Alamar Blue fluorescence, 48 h",
    "Recorded value": "7.93 µM"
  },
  {
    "Compound": "COc1ccc(C(c2ccc(OC)cc2)N2CCN(C(=O)c3ccc([N+](=O)[O-])o3)CC2)cc1",
    "Study system": "BJeH fibroblasts viability, Alamar Blue fluorescence, 48 h",
    "Recorded value": "6.76 µM"
  },
  {
    "Compound": "COC(=O)c1ccc([C@@H]2c3[nH]c4ccccc4c3C[C@@H](C(=O)OC)N2C(=O)CCl)cc1",
    "Study system": "BJeH fibroblasts viability, Alamar Blue fluorescence, 48 h",
    "Recorded value": "2.68 µM"
  },
  {
    "Compound": "O=C(NCCNC(c1ccccc1)c1ccccc1)c1ccc([N+](=O)[O-])o1",
    "Study system": "BJeH fibroblasts viability, Alamar Blue fluorescence, 48 h",
    "Recorded value": "5.31 µM"
  }
]

Reference for the values: PubChem BioAssay AID540316
